Target: full-length human GLP-1R with an N-terminal FLAG tag (human, UniProt P43220 24-463)
Experiment: cell-based or functional assay
Starred links: 1 amine or outer side, 2 acyl side, 3 side chain; linkers in the order of their positions; H or OH if unused. Non-standard residues stand in square brackets, D forms with d. Groups on a side chain read outwards from the residue. No end group written: not given here. *: point of attachment. C18 diacid = O=C(O)CCCCCCCCCCCCCCCCC(=O)*; γGlu = O=C(O)[C@H](CCC(=O)[*:2])N[*:1]; NMeY = CN[C@@H](Cc1ccc(O)cc1)C(=O)O; AEEA = NCCOCCOCC(=O)O; Aib = CC(C)(N)C(=O)O

| Binder | Result unit | Human GLP1R cAMP EC50, HEK293T |
| --- | --- | --- |
| YXEGTFISDYSIXXDRXAQXNFVNWLLAQSPSSGAPPPS (N-methyl Tyr 1; Aib at 2,13,17,20; Lys(G5-C18 diacid) at 14; C-terminal OH) [Compound No. 96] | nM | 9.55 |
| [NMeY][Aib]EGTFISDYSI[Aib]LDR[Aib]AQ[Aib]K([2OEGgEgE-C18 diacid])FVNWLLAQRG-OH [Compound No. 72] | nM | 43.2 |
| YXEGTFISDYSIALDRXAQXDFVNWLLAQRPSSGAPPPS (N-methyl Tyr 1; Aib at 2,20; Lys(G5-C18 diacid) at 17; C-terminal OH) [Compound No. 51] | nM | 14.8 |
| [NMeY][Aib]EGTFISDYSIALDR[Aib]K([GGPAPAP-C18 diacid])Q[Aib]DFVNWLLAQSPSSGAPPPS-OH [Compound No. 102] | nM | 117 |
| [NMeY][Aib]EGTFISDYSI[Aib]LDR[Aib]AQ[Aib]K([AEEA-γGlu-AEEA-γGlu-C18 diacid])FVNWLLAQSPSSGAPPPS-NH2 [Compound No. 92] | nM | 36.3 |
| YXEGTFISDYSIAXDRXAQXNFVNWLLAQSPSSGAPPPS (N-methyl Tyr 1; Aib at 2,17,20; Lys(G5-C18 diacid) at 14; C-terminal OH) [Compound No. 45] | nM | 8.22 |
| YXEGTFISDYSIAXDRXAQKDFVEWLLAQSPG (N-methyl Tyr 1; Aib at 2,17; Lys(G5-C18 diacid) at 14; 'K1' at 20 and 'E1' at 24 as printed; C-terminal OH) [Compound No. 124] | nM | 123 |
| [NMeY][Aib]EGTFISDYSIALDR[Aib]AQ[Aib]K([2OEGgEgE-C18 diacid])FVNWLLAQSPG-OH [Compound No. 86] | nM | 58.9 |

Attribution: patent US20230143604A1
